Tested on: K562
Assay: NCI tumour cell line growth inhibition, 48 h
Calls of active or inactive are those of the source. Cut-off read from the data, not from the text of the source: active = GI50 up to about 1.1 µM and inactive = higher.
This listing pairs compounds with measured GI50.

CCOC(=O)c1c(C)n(-c2ccc(Cl)cc2)c2c1cc(O)c1[nH]c3c(c12)CCCC3: 41.3 µM (inactive)
CCn1c(-c2ccc(/N=N/Nc3ccc(-c4n[nH]c(=S)n4CC)cc3)cc2)n[nH]c1=S: 2.67 µM (inactive)
O=C(O)c1c(O)c2cc(Br)ccc2oc1=O: > 100 µM (inactive)
CCOC(=O)C(C)NC(=O)C(C)NC(=O)C(C)NC(=O)C(C)NC(=O)C(C)NC(=O)OCc1ccccc1 (stereo not drawn): > 100 µM (inactive)
Cn1c(-c2ccccc2)c/c(=N\NS(C)(=O)=O)c2cc(S(=O)(=O)O)ccc21: > 100 µM (inactive)
COC(=O)C(=O)C(C(=O)C(=O)Nc1nc2ccc(C)cc2s1)c1nc2ccc([N+](=O)[O-])cc2nc1O (stereo not drawn): > 100 µM (inactive)
Cc1cccc2c1C(=O)C1(Cc3ccccc3C1=O)C2 (stereo not drawn): > 100 µM (inactive)
C=CC1C(OC2OC(CO)C(O)C(O)C2O)OC=C(C(=O)OC)C1CC1CC(=O)CC(CCc2ccc(O)cc2)O1 (stereo not drawn): > 100 µM (inactive)

Name the recorded GI50 for Cc1ccc2c(c1)NC(c1ccc(C(=O)O)cc1)c1cccn1-2 (stereo not drawn) .
> 100 µM (inactive)

Name the recorded GI50 for Cn1c(=O)c2nc3c4ccccc4c(=O)n(C)c3nc2n(C)c1=O .
> 100 µM (inactive)

Name the recorded GI50 for O=C(O)Cc1ccc(Oc2nc3ccccc3nc2C(=O)O)cc1 .
0.0849 µM (active)

Name the recorded GI50 for O=Cc1ccc2c(c1)CC1(C2)Cc2ccc(C=O)cc2C1 .
2.89 µM (inactive)

Name the recorded GI50 for Cc1nc2c(n1Cc1ccc(F)cc1)C(=O)c1ccccc1C2=O .
5.61 µM (inactive)

Name the recorded GI50 for NC1(C(=O)O)CCC(C(=O)O)CC1 (stereo not drawn) .
> 100 µM (inactive)

Name the recorded GI50 for CCOc1ccc(/N=N/c2ccc(-c3ccc(/N=N/c4c(O)ccc5cc(S(=O)(=O)O)cc(S(=O)(=O)O)c45)cc3)cc2)cc1 .
> 100 µM (inactive)

Name the recorded GI50 for Cc1ccc(S(=O)(=O)Oc2ccc(OS(=O)(=O)c3ccc(C)cc3)c3c2C(=O)c2ccccc2C3=O)cc1 .
> 100 µM (inactive)

Name the recorded GI50 for C=CCO[C@]1(CC=C)C(=O)C(=O)OC1C1COC(C)(C)O1 (stereo partly drawn) .
27.4 µM (inactive)

====

System: SK-MEL-5
Assay: NCI tumour cell line growth inhibition, 48 h
The source made the active and inactive calls. Rule as the data show it: active = GI50 up to about 1.1 µM and inactive = higher.
// one of Yes (active), No (inactive), no free text

Cn1ccnc1Sc1ccc(/C=N/NC(=O)c2ccccc2O)cc1[N+](=O)[O-]: No
COc1ccc2nc3cccc([N+](=O)[O-])c3c(NCCN(C)C)c2c1: Yes
O=P(O)(O)C=C=C1CCCCC1: No
Cc1cccc2c(N)c3cccc(C(=O)NCC[N+](C)(C)Cc4ccc([N+](=O)[O-])s4)c3nc12: No

Any idea what this test logged for O=C(NN1C(=O)CSC1c1ccco1)c1ccncc1 (configuration not stated) ?
No

Any idea what this test logged for NNC(=O)N/N=C1/C(=O)N(c2ccc(Cl)c(Cl)c2)C(=O)C(=O)C1c1nc2ccccc2o1 (configuration not stated) ?
No

Any idea what this test logged for O=C1N2Cc3c4ccc5c3CN3C(=O)N6Cc7c(ccc(c7CN1C6(c1ccccc1)C23c1ccccc1)OCCOCCNCCOCCO4)OCCOCCNCCOCCO5 (configuration not stated) ?
No

====

This listing pairs compounds with measured GI50.
System: UO-31
Test: NCI tumour cell line growth inhibition, 48 h
Calls of active or inactive are those of the source. Cut-off read from the data, not from the text of the source: active = GI50 up to about 1.1 µM and inactive = higher.

Guide cases for GI50, answers given:
COc1cc(/C=C2/SC(c3ccccc3)N(c3cc(Cl)ccc3Cl)C2=O)cc(OC)c1OC (configuration not stated): 75.3 µM (inactive)
NCCCN1CCN(CCCNc2ccc3ncn4c5ccccc5c(=O)c2c34)CC1: 5.28 µM (inactive)

Name the recorded GI50 for CSc1ccc(C2C(Cl)C(=O)N2NC(=O)c2c(Cl)c(Cl)c(Cl)c(Cl)c2-c2nc3ccccc3[nH]2)cc1 (configuration not stated) .
3.93 µM (inactive)

Name the recorded GI50 for COc1ccc2nccc(SCC(=O)O)c2c1 .
> 100 µM (inactive)

====

Tested on: EKVX
Assay: NCI tumour cell line growth inhibition, 48 h
Activity calls are given as the source filed them. No stated cut-off is given here; in the data, active = GI50 up to about 1.1 µM and inactive = higher.
This listing pairs molecules with measured GI50.

Guide cases for GI50, answers given:
CC(C)(C)[Si](C)(C)OCC1OC(n2ccc(=O)[nH]c2=O)C(O[Si](C)(C)C(C)(C)C)/C1=N/O (configuration not stated): 4.13 µM (inactive)
Sc1nnc(-c2ccccc2Nc2ccccc2-c2nnc(S)n2-c2ccccc2)n1-c1ccccc1: 32.4 µM (inactive)
O=Cc1ccc(-c2cc(C=O)c(-c3cccs3)[nH]2)s1: 40 µM (inactive)
Cc1cn(C2CC(n3cc(Cn4cc(Br)c(=O)[nH]c4=O)nn3)C(CO)O2)c(=O)[nH]c1=O (configuration not stated): > 100 µM (inactive)
COC(=O)C1(O)c2ccccc2N=C2C(=O)c3ccccc3N21 (configuration not stated): > 100 µM (inactive)

Name the recorded GI50 for COc1ccc(N[C@H](C[S+]([O-])c2ccc(C)cc2)c2ccc(F)cc2)cc1 (some centres not stated) .
> 100 µM (inactive)

Name the recorded GI50 for N/C(=N\O)N/N=C\c1c(O)cc(O)cc1O .
> 35.2 µM (inactive)

====

Test system: DMS-114
Test: NCI tumour cell line growth inhibition, 48 h
Active and inactive are the calls of the source. Rule as the data show it: active = GI50 up to about 1.1 µM and inactive = higher.
// one of 1 (active), -1 (inactive), no free text

Consider the worked cases shown below.
Cn1c(=O)c2nc3c4ccccc4c(=O)n(C)c3nc2n(C)c1=O: -1
CCCCC(C(=O)C(=O)NC1C2CC3CC(C2)CC1C3)C(=O)C(C)C (configuration not stated): -1
CC1CC[C@]2(C(=O)O)CCC3(C)C(=CC(=O)C4[C@@]5(C)CCC(=O)C(C)(C)C5CC[C@]43C)[C@@H]2[C@H]1C (some centres not stated): -1

Any idea what this test logged for Cc1cccc(Cl)c1NC(N)=S ?
-1

Any idea what this test logged for CC1[C@@H]2CC=C3[C@H]4CCC5Cc6nc7c(nc6C[C@@]5(C)C4CC(=O)[C@]32CO[C@]12OC(C)(C)CC2O)CC1CC[C@@H]2C3=C[C@H]4O[C@@]5(O[C@@](C)(CO)C[C@@H]5O)C(C)[C@@]4(O)[C@]3(C)[C@@H](O)CC2[C@]1(C)C7 (some centres not stated) ?
1

Any idea what this test logged for COCOCC/C=C/C=O ?
-1

Any idea what this test logged for Nc1nc(N)c2ncn(CCOC(c3ccccc3)P(=O)(O)O)c2n1 (configuration not stated) ?
-1

Any idea what this test logged for O=C(CO)CC(=O)C(=O)Nc1nc([N+](=O)[O-])cs1 ?
-1

Any idea what this test logged for CC(=O)NC(CCCN(Cc1ccccc1)C(=O)N(CCCl)N=O)C(=O)NCc1ccccc1 (configuration not stated) ?
-1

====

System: K562
Experiment: NCI tumour cell line growth inhibition, 48 h
Activity calls are given as the source filed them. Rule as the data show it: active = GI50 up to about 1.1 µM and inactive = higher.
This listing pairs compounds with measured GI50.

Guide cases for GI50, answers given:
CC(=O)CCn1[nH]c(=O)c(Cl)c(Cl)c1=O: > 100 µM (inactive)
c1ccc(CN(Cc2ccccn2)Cn2cccn2)nc1: 36.6 µM (inactive)
Cc1ccc(C)c(COCCOCn2cc(N3CCOCC3)c(=O)[nH]c2=O)c1: > 100 µM (inactive)

Now look at this one.
Under K562: GI50 value of COc1ccc(/C=N/n2c(Cc3ccccc3)n[nH]c2=O)c(OC)c1 ?
> 100 µM (inactive)

====

Tested on: MOLT-4
Experiment: NCI tumour cell line growth inhibition, 48 h
Active and inactive are the calls of the source. Cut-off read from the data, not from the text of the source: active = GI50 up to about 1.1 µM and inactive = higher.
// one of active, inactive, no free text

Consider the worked cases shown below.
[N-]=[N+]=NCC1OCC(O)C(OCc2ccccc2)C1OCc1ccccc1 (stereo not given): inactive
CN(C)CCC1(C2=CCCC2)CC/C(=C\c2ccc3c(c2)OCO3)C1=O (stereo not given): inactive
COc1ccc(N[C@H](C[S+]([O-])c2ccc(C)cc2)c2ccc(F)cc2)cc1 (stereo not given in full): inactive
Cc1oc2c(C)c3oc(=O)cc(C)c3cc2c1CN1C(=O)C2OCCOCCOCCOCCOCCO[C@H]2C1=O (stereo not given in full): inactive
Sc1nnc(-c2ccccc2Nc2ccccc2-c2nnc(S)n2-c2ccccc2)n1-c1ccccc1: inactive
Cn1/c(=N\S(=O)(=O)c2ccccc2)n(S(=O)(=O)c2ccccc2)c2ccccc21: inactive

Any idea what this test logged for C[n+]1cn(C2=C([N-]S(=O)(=O)c3ccccc3)C(=O)c3ccccc3C2=O)c2ccccc21 ?
inactive

Any idea what this test logged for CCCCCCCOc1ccc(/C=C\c2cc[n+](CCCCCCCC[n+]3ccc(/C=C\c4ccc(OCCCCCCC)cc4)cc3)cc2)cc1 ?
inactive

Any idea what this test logged for O=C(C[C@@H]1CCCN2CCCC[C@H]12)N1c2ccccc2Sc2ccc(Cl)cc21 ?
inactive

Any idea what this test logged for CC1(C)CC(=O)C(CC(C(=O)C(=O)Nc2cc(C(F)(F)F)ccc2Cl)C(=O)c2ccco2)C(=O)C1 (stereo not given) ?
inactive

Any idea what this test logged for N#C[BH2-][n+]1ccc(C(=O)NNC(c2ccccc2)C(F)(F)F)cc1 (stereo not given) ?
inactive

Any idea what this test logged for CCn1c(-c2ccc(/N=N/Nc3ccc(-c4n[nH]c(=S)n4CC)cc3)cc2)n[nH]c1=S ?
inactive

Value source: ChEMBL document CHEMBL1201862
